The measurements presented in this section are drawn from paper PMC11237593.

Listing: pKd of selected binders
- experimental target: T1, OC43 S1B+C (S1B and S1C domains of the hCoV-OC43 spike glycoprotein) (human coronavirus OC43, UniProt P36334 321-675)
- T1 construct: also called recombinant OC43 S1B+C; recombinant OC43 protein; source: Expi293F, transfected, purified from supernatant (Ni-NTA IMAC, SEC); not shown: His6, C-terminal, cleaved
- T1 sequence (looked up): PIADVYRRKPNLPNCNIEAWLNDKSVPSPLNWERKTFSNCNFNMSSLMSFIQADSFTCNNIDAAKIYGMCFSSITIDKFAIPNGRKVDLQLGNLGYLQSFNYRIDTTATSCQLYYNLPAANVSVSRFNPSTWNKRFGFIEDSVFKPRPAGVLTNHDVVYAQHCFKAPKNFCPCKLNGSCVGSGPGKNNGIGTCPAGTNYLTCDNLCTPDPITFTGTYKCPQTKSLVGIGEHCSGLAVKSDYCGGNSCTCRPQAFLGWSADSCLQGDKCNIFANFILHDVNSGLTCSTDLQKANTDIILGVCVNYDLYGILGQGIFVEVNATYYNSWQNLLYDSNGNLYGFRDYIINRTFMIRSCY
- procedure details: BLI
- measurement parameters: both partners purified
pKd: −log10 of the molar value.
readout name: pKd

1. WNb 296 (VHH) VHH: QVQLQESGGGLVQAGGSLRLSCAASGRTFSDYFMGWFRQAPGKEREFVASISWSGGTTYYADSVKGRFTISRDNANNTVYLQMNSLKPVDTAVYYCAAVADYGLGLTTSYEYDYWGQGTQVTVSS    7.82
2. WNb 291 (VHH) VHH: QVQLQESGGGLVQAGGSLRLSCAASGRTFSNYFMGWFRQAPGKEREFVAAISWSGGTTYYADSVKGRFTISRDNAKNTVYLQMNSLKPEDTAVYYCAANTDYGMGFVRAYEYDYWGQGTQVTVSS    7.93
3. WNb 299 (VHH) VHH: QVQLQESGGGWVQPGGSLRLSCAASGFTFSNYAMGWFRQAPGKEREFVATISWSGGTTVYADSVKGRFTISRDNAKNTVYLQMNSLKPEDTAVYYCAAASDYGMVQMSDYEYDYWGQGTQVTVSS    8.00
